# target_or_system: pY705-STAT3 in PBMC (Homo sapiens)
# Construct: Cryopreserved Peripheral Blood Mononuclear Cells (PBMC) are from AllCells; host or cells: cryopreserved PBMC
# Sequence (P40763 whole entry): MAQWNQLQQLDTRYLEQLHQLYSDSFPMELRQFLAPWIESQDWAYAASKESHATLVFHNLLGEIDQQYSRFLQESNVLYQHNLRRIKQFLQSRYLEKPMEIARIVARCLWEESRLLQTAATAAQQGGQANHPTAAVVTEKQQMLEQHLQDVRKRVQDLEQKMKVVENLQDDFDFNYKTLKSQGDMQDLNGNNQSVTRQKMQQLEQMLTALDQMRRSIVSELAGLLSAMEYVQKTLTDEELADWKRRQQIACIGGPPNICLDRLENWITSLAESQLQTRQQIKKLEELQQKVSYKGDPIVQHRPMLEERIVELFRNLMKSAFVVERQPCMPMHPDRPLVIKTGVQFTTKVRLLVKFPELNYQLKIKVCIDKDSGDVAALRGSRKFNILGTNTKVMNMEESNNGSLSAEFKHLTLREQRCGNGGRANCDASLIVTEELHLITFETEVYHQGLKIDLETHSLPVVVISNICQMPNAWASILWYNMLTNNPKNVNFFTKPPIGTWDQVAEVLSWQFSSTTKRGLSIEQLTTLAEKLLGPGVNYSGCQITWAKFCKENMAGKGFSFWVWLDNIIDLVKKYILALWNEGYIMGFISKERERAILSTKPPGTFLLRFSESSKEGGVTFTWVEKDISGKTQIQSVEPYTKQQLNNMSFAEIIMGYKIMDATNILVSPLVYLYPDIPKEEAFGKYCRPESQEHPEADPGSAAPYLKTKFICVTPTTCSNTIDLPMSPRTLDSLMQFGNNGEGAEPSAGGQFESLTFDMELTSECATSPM
# experimental_protocol: MSD-pSTAT-PBMC Assay (pSTAT3, IL-6 stimulated)
# Assay type: cell-based
# measurement_setup: PBMC, compound 3 hrs, then 10 ng/mL IL-6 for 10 min; Table 115; read-out: STAT3
Kindly supply the reported IC50 values for the records listed here.

molecule | experimental_endpoint | result
CCCOC(=O)[C@H](C)NP(=O)(Cc1ccc2sc(C(=O)N[C@H]3CCC[C@H]4CC[C@@H](C(=O)N5CC(c6cnccc6N6CC[C@H]6COC)C5)N4C3=O)cc2c1)Oc1ccccc1 (stereo partly drawn) | IC50 | < 100 nM
CCCOC(=O)[C@H](C)NP(=O)(Cc1ccc2sc(C(=O)N[C@H]3CC[C@@H](C)C[C@H]4CC[C@@H](C(=O)N5CC(c6cnccc6F)C5)N4C3=O)cc2c1)Oc1ccccc1 (stereo partly drawn) | IC50 | < 100 nM
CCCOC(=O)C(C)CNP(=O)(Cc1ccc2sc(C(=O)N[C@H]3CCC[C@H]4CC[C@@H](C(=O)N5CC(c6cccnc6)C5)N4C3=O)cc2c1)Oc1ccccc1 (stereo partly drawn) | IC50 | 1000 to 3000 nM

Dear colleague, could you please provide IC50 for the molecules listed below?
1. CC[C@H](C)OC(=O)[C@H](C)NP(=O)(Cc1ccc2sc(C(=O)N[C@H]3CCC[C@H]4CC[C@@H](C(=O)N5CC(c6cccnc6)C5)N4C3=O)cc2c1)Oc1ccccc1 (stereo partly drawn)
2. CCCOC(=O)[C@H](C)NP(=O)(Cc1ccc2sc(C(=O)N[C@H]3C[C@H](C)C[C@H]4CC[C@@H](C(=O)N5CC(c6cnccc6C)C5)N4C3=O)cc2c1)Oc1ccccc1 (stereo partly drawn)
3. CCCOC(=O)[C@H](C)NP(=O)(Cc1ccc2sc(C(=O)N[C@H]3CCCC[C@H]4CC[C@@H](C(=O)N5CC(c6cnccc6F)C5)N4C3=O)cc2c1)Oc1ccccc1 (stereo partly drawn)
4. CCCOC(=O)[C@H](C)NP(=O)(Cc1ccc2sc(C(=O)N[C@H]3CCC[C@H]4CC[C@@H](C(=O)N[C@H]5CN(C(C)=O)C[C@@H]5F)N4C3=O)cc2c1)Oc1ccccc1 (stereo partly drawn)
5. CCCOC(=O)[C@H](C)N[P@@](=O)(Oc1ccccc1)[C@@H](F)c1ccc2sc(C(=O)N[C@H]3C[C@H](C)C[C@H]4CC[C@@H](C(=O)N5CC(c6cnccc6OC)C5)N4C3=O)cc2c1 (single isomer, unassigned) [Compound 1040]
6. CCCOC(=O)[C@H](C)NP(=O)(Oc1ccccc1)[C@@H](F)c1ccc2sc(C(=O)N[C@H]3C[C@@H](C)C[C@H]4CC[C@@H](C(=O)N5CC(c6cncnc6N6CCC6)C5)N4C3=O)cc2c1 (stereo partly drawn)
7. CCCOC(=O)[C@H](C)NP(=O)(Oc1ccccc1)[C@@H](F)c1ccc2sc(C(=O)N[C@H]3CCC[C@H]4CC[C@@H](C(=O)N5CC(c6cncnc6N(C)C)C5)N4C3=O)cc2c1 (stereo partly drawn)

1. 100 to 1000 nM
2. < 100 nM
3. < 100 nM
4. > 3000 nM
5. < 100 nM
6. < 100 nM
7. < 100 nM

Data provenance is patent US20250215029A1.
